Provenance of the data: paper PMC7463931

Collected pEC50 values appear next to each entry.
Tested on: Mytilus galloprovincialis plantigrade larvae
Experiment Summary: M. galloprovincialis larvae anti-settlement bioassay
Format: in vivo
Measurement Parameters: dose-response, Probit regression, 95% CI, read-out: EC50 (concentration that inhibited 50% of larval settlement)
// scale note: pEC50 = -log10(conc_M); give the bare number

Known results for compounds:
{"Compound": "CC1(C)CCc2cc3c(=O)c4ccccc4oc3c(O)c2O1 [Compound 10]", "Assay Target": "Mytilus galloprovincialis plantigrade larvae", "pEC50": 5.34}
{"Compound": "CCCOc1ccc(NCCc2ccc3c(c2)OCO3)c2c(=O)c3ccccc3sc12 [Compound 15, 1-[11]-4-propoxy-9H-thioxanthen-9-one]", "Assay Target": "Mytilus galloprovincialis plantigrade larvae", "pEC50": 4.54}
{"Compound": "O=c1c2ccccc2oc2c(O)cccc12 [Compound 4, 4-hydroxy-]", "Assay Target": "Mytilus galloprovincialis plantigrade larvae", "pEC50": 4.67}
{"Compound": "O=c1c2ccccc2oc2ccc(O)c(O)c12 [Compound 5, 1,2-dihydroxy-]", "Assay Target": "Mytilus galloprovincialis plantigrade larvae", "pEC50": 4.81}
{"Compound": "O=c1c2ccccc2oc2c(O)c(O)ccc12 [Compound 7, 3,4-dihydroxy-]", "Assay Target": "Mytilus galloprovincialis plantigrade larvae", "pEC50": 4.94}

Consider the record given below.
pEC50 reported for this compound CCCOc1ccc(N2CCCCC2)c2c(=O)c3ccccc3sc12 [Compound 17] : 5.45
